System: LOX IMVI
MEASUREMENT NOTES: NCI tumour cell line growth inhibition, 48 h
Calls of active or inactive are those of the source. Cut-off read from the data, not from the text of the source: active = GI50 up to about 1.1 µM and inactive = higher. Non-standard residues stand in square brackets, D forms with d. Residues, ends and D or L forms follow the SMILES beside them. ξ: configuration not given here. *: point of attachment. Cbz = O=C(OCc1ccccc1)*; ξK = NCCCCC(N)C(=O)O
Hi there, use one of these labels in your reply, thanks! T = active, F = inactive

Ask: Per the assay record, what outcome was assigned to COc1cc2c(cc1OCCCN1CCOCC1)N=C[C@@H]1CCCN1C2=O ?
Result: F

Ask: Tell me the assay call for Cc1ccc(C(=O)/C=C(\O)C(=O)NC23CC4CC(CC(C4)C2)C3)cc1 please.
Result: T

Ask: Query: recorded result category for CCOC(=O)C(=O)NCCCN1CCOCC1 in this test
Result: F

Ask: Answer briefly: the call reported for COc1ccc2c(c1)[n+]([O-])c(/C(C)=N/NC(=O)CC#N)c[n+]2[O-] in this assay.
Result: F

Ask: Dear colleague, could you share the recorded outcome for Cc1cc2c(cn1)C(=O)OCC2 when you have a moment?
Result: F

Ask: Per the assay record, what outcome was assigned to CN(C)NC(=O)NC12CC3CC(CC(C3)C1)C2 ?
Result: F

Ask: Hi, do you know how Nc1nncc2[nH]cnc12 came out in this test?
Result: F

Ask: Write down the call the test reported for this molecule. Item: N#CC(C#N)=C1CCCCc2ccc([N+](=O)[O-])cc21
Result: F

Ask: Recorded test call requested for Cc1c2n(c(=O)[nH]c1=O)C1OC(CO)C(N=[N+]=[N-])C1O2 (stereo not drawn)
Result: F

Ask: Record request — test call for COc1ccc2c(c1)[n+]([O-])c(C#N)c(N1CCN(c3ccc([N+](=O)[O-])cc3)CC1)[n+]2[O-]
Result: F

Ask: Record request — test call for Nc1nc(=O)[nH]c2c1cnn2C1CCCCO1 (stereo not drawn)
Result: F

Ask: Recorded test outcome, item CC(C)(C)OC(=O)n1cc(C2CNC(=O)C23CCC(=O)N3Cc2ccccc2)c2ccccc21 (stereo not drawn)
Result: F

Ask: Any idea what this test logged for NNC1=N/C(=C\c2ccccc2O)C(=O)N1 ?
Result: F

Ask: Hi, do you know how CCC1(OC(=O)CN2CCN(CCO)CC2)C(=O)OCc2c1cc1n(c2=O)Cc2cc3ccccc3nc2-1 (stereo not drawn) came out in this test?
Result: T

Ask: Outcome logged for NCCC1([N+](=O)[O-])CCNCC1 in this assay:
Result: F

Ask: Hi, sorry to bother you, what did the test record for CC(CCc1ccc2c(c1)c(N)c1ccc(N)cc1[n+]2[O-])CC(C)(C)C (stereo not drawn) ?
Result: F

Ask: Call for entry CC(=O)Oc1cccc2c1C(=O)c1c(OC(C)=O)cc(C)cc1C2=O :
Result: F

Ask: What was the test verdict on CC(=O)c1ccc(/N=N/N2CCCC2)cc1 ?
Result: F

Ask: Could you kindly confirm the outcome this assay logged for COc1cc(/N=C(\N)N=C(N)N)c2ncccc2c1 ?
Result: F

Ask: Field: outcome | Entry: Cc1cc2c(O)c(c1)CN(Cc1ccccc1)Cc1cc(C)cc(c1O)CN(Cc1ccccc1)Cc1cc(C)cc(c1O)CN(Cc1ccccc1)C2
Result: F

Ask: I would be grateful if you could indicate the recorded call for Nc1ncnc2c1ncn2C1CCC(CO)O1 (stereo not drawn) .
Result: F

Ask: // param item: N#Cc1c(-c2ccccc2)c(/C=N/c2ccc(F)cc2)c(=O)n2c1[nH]c1ccccc12 ; yields the recorded call
Result: F

Ask: # outcome recorded in this test, key = CC(C)N(CCn1c2c3ccccc3ccc2c2oc(=O)c3ccccc3c21)C(C)C
Result: F

Ask: What did the test return for CCOC(=O)/C(O)=C(/c1n[nH]c(=O)c2ccccc12)[N+](=O)[O-] ?
Result: F

Ask: // outcome(item) with item = C[C@H](CCc1nc(C#N)c(N)o1)[C@H]1CC[C@H]2[C@@H]3CCC4C[C@@H](O)CC[C@]4(C)[C@H]3C[C@@H](O)[C@]12C (stereo partly drawn)
Result: F

Ask: Status in this test for Cc1n[nH]c(=O)n1-c1cccnc1 ?
Result: F

Ask: Tell me the recorded outcome of this test for NCCCCC(NC(=O)OCc1ccccc1)C(=O)NCC(N)=O (stereo not drawn) (Cbz-[ξK]-Gly-NH2) .
Result: F

Ask: Please let me know the test result on file for CN1CC=C(OP(=O)(NCc2ccccc2)N(CCCl)CCCl)CC1 (stereo not drawn) .
Result: F

Ask: Record lookup: outcome of this test for CSc1s[s+]c(SC)c1-c1ccccc1 ?
Result: F

Ask: How did this test come out for NC(=S)N/N=C1\C(=O)N(CCc2ccccc2)C(=O)C1C(=O)NCCc1ccccc1 (stereo not drawn) ?
Result: F

Ask: I'd appreciate the recorded outcome for O=C1C(c2c(O)[nH]c3ccc(Br)cc23)=Nc2ccccc21 from this test.
Result: F

Ask: Per the records of this test, what outcome belongs to CC(NC(=O)C(NC(=O)C(NC(=O)C(F)(F)F)C(C)C)C(C)C)C(=O)Oc1c(Cl)c(Cl)c(Cl)c(Cl)c1Cl (stereo not drawn) ?
Result: F

Ask: Lab log entry: COC(=O)c1c(N)n[nH]c1N — outcome as called in the assay?
Result: F

Ask: Could you check what this test reported for COc1ccc(C(SCCO)(c2ccccc2)c2ccccc2)cc1 ?
Result: F

Ask: State the result this test recorded for CCCCCc1cc2cc3c(c(O)c2c(=O)[nH]1)C1(CCC3)C(=O)c2c(O)ccc(O)c2C1=O .
Result: F

Ask: Check the results log: what was the call for CN(C)CCCNc1ncnc2c1ncn2C1OC(CO)C(O)C1O (stereo not drawn) ?
Result: F

Ask: Would you mind telling me which call this test gave CC(NC(=O)OCc1ccccc1)NC(=O)OC(C)(C)C (stereo not drawn) ?
Result: F

Ask: Check the results log: what was the call for OCCCCCCCCCCCOc1ccc(C2OCC3(CC=CCC3)CO2)cc1 (stereo not drawn) ?
Result: F

Ask: So what was the verdict on O=C(/C=C/c1ccc([N+](=O)[O-])cc1)c1ccc(NCc2nc3ccccc3[nH]2)cc1 in this test?
Result: F

Ask: Lab log entry: COC(=O)CSc1[nH]c2nc(C)nc(Nc3ccccc3)c2c1C#N — outcome as called in the assay?
Result: F

Ask: How did this test come out for CC(C)(C)C(=O)CP(=O)(O)O ?
Result: F

Ask: Outcome? COc1cc(Cl)c2c3c(c(C(=O)c4ccccc4)oc13)CCC2
Result: F

Ask: Per the assay record, what outcome was assigned to C=CC(=O)NCCC(=O)OCn1cc(F)c(=O)[nH]c1=O ?
Result: F
